Data origin: patent US8618138B2

Reported values of pEC50 for individual entries
Test system: M17-TAU P301L cells
RUN DESCRIPTION: TAU cytotoxicity assay: LDH leakage of retinoic acid incubated M17-TAU P301L cells
Type: cell-based, human
TEST PARAMETERS: Homo sapiens, 168 h, reduction of LDH activity of retinoic acid incubated M17-TAU P301L cells, 7 days
pEC50: −log10 of the molar value.
REPORTED PROPERTY: pEC50

{"COMPOUND": "O=C(NCCc1c[nH]c2ccc(Cl)cc12)C1CCN(c2ccc3c(c2)COC3)C1=O (stereo not drawn)", "REPORTED PROPERTY": "pEC50", "EXPERIMENTAL VALUE": 5.93}
{"COMPOUND": "COc1ccc2[nH]cc(CCNC(=O)c3sc(-c4ccc(C)cc4)nc3C)c2c1", "REPORTED PROPERTY": "pEC50", "EXPERIMENTAL VALUE": 7.30}
{"COMPOUND": "O=C(NCCc1c[nH]c2ccc(Cl)cc12)C1=NOC(c2ccccc2)C1 (stereo not drawn)", "REPORTED PROPERTY": "pEC50", "EXPERIMENTAL VALUE": 6.72}
{"COMPOUND": "O=C(NCCc1c[nH]c2ccc(Cl)cc12)c1cc(C2CC2)on1", "REPORTED PROPERTY": "pEC50", "EXPERIMENTAL VALUE": 7.89}
{"COMPOUND": "N#Cc1ccc2[nH]cc(CCNC(=O)c3cc(Cc4cc(F)ccc4F)on3)c2c1", "REPORTED PROPERTY": "pEC50", "EXPERIMENTAL VALUE": 7.49}
{"COMPOUND": "O=C(NCCc1c[nH]c2ccc(Cl)cc12)c1noc(Cc2cc(F)cc(F)c2)n1", "REPORTED PROPERTY": "pEC50", "EXPERIMENTAL VALUE": 7.96}

---

Test system: M17-TAU P301L cells
RUN DESCRIPTION: TAU cytotoxicity assay: LDH leakage of retinoic acid incubated M17-TAU P301L cells
Assay type: cell-based, human
TEST PARAMETERS: Homo sapiens, 168 h, reduction of LDH activity of retinoic acid incubated M17-TAU P301L cells, 7 days
pEC50: −log10 of the molar value.
Reported values of pEC50 for individual entries
REPORTED PROPERTY: pEC50

{"COMPOUND": "Cc1ncoc1C(=O)NCCc1c[nH]c2ccc(Cl)cc12 [Example D112]", "EXPERIMENTAL VALUE": 5.90}
{"COMPOUND": "O=C(NCCc1c[nH]c2ccc(Cl)cc12)c1cc(Cc2ccccc2)on1 [Example D7]", "EXPERIMENTAL VALUE": 7.82}
{"COMPOUND": "O=C(NCCc1c[nH]c2ccc(Cl)cc12)C1CCN(c2ccccc2)C1=O (stereo not drawn) [Example D64]", "EXPERIMENTAL VALUE": 6.50}
{"COMPOUND": "O=C(NCCc1c[nH]c2ccc(Cl)cc12)c1cc(C2CCCC2)on1 [Example D2]", "EXPERIMENTAL VALUE": 8.52}
{"COMPOUND": "Cc1ccc(-c2nc(C)c(C(=O)NCCc3c[nH]c4ccc(F)cc34)s2)cc1 [Example D37]", "EXPERIMENTAL VALUE": 7.21}
{"COMPOUND": "O=C(NCCc1c[nH]c2ccc(Cl)cc12)c1cc(Cc2ccoc2)on1 [Example D22]", "EXPERIMENTAL VALUE": 7.55}
{"COMPOUND": "O=C(NCCc1c[nH]c2ccc(Cl)cc12)C1=NOC(Cc2ccccc2)C1 (stereo not drawn) [Example D43]", "EXPERIMENTAL VALUE": 7.03}
{"COMPOUND": "O=C(NCCc1c[nH]c2c(F)cc(Cl)cc12)c1cc(Cc2cc(F)ccc2F)on1 [Example D141]", "EXPERIMENTAL VALUE": 6.63}
{"COMPOUND": "O=C(NCCc1c[nH]c2ccc(C(F)(F)F)cc12)c1cc(Cc2cc(F)ccc2F)on1 [Example D135]", "EXPERIMENTAL VALUE": 6.84}
{"COMPOUND": "O=C(NCCc1n[nH]c2ccccc12)c1cc(Cc2cc(F)ccc2F)on1 [Example D166]", "EXPERIMENTAL VALUE": 6.20}
{"COMPOUND": "O=C(NCCc1c[nH]c2ccc(Cl)cc12)c1noc(Cc2ccccc2)n1 [Example D168]", "EXPERIMENTAL VALUE": 7.11}
{"COMPOUND": "O=C(NCCc1c[nH]c2ccc(Cl)cc12)C1CCN(c2ccccc2F)C1=O (stereo not drawn) [Example D79]", "EXPERIMENTAL VALUE": 6.07}

---

System: M17-TAU P301L cells
RUN DESCRIPTION: TAU cytotoxicity assay: LDH leakage of retinoic acid incubated M17-TAU P301L cells
Type: cell-based, human
TEST PARAMETERS: Homo sapiens, 168 h, reduction of LDH activity of retinoic acid incubated M17-TAU P301L cells, 7 days
REPORTED PROPERTY: log10(EC50) (log10 of the value in nM)

{"COMPOUND": "Cn1ccc(C(=O)NCCc2c[nH]c3ccc(Cl)cc23)n1 [Example D118]", "log10(EC50)": 2.52}
{"COMPOUND": "O=C(NCCc1c[nH]c2ccc(Cl)cc12)c1noc(Cc2ccccc2F)n1 [Example D170]", "log10(EC50)": 1.65}
{"COMPOUND": "O=C(NCCc1c[nH]c2ccc(Cl)cc12)c1noc(Cc2ccsc2)n1 [Example D193]", "log10(EC50)": 1.69}
{"COMPOUND": "COc1ccc2c(CCNC(=O)c3cc(Cc4cccc(F)c4)on3)c[nH]c2c1 [Example D74]", "log10(EC50)": 2.73}
{"COMPOUND": "O=C(NCCc1c[nH]c2ccc(Cl)cc12)c1noc(Cc2c(F)cccc2F)n1 [Example D188]", "log10(EC50)": 1.61}
{"COMPOUND": "O=C(NCCc1c[nH]c2ccc(Cl)cc12)C1CCN(c2c(F)cccc2F)C1=O (stereo not drawn) [Example D151]", "log10(EC50)": 2.75}
{"COMPOUND": "O=C(NCCc1c[nH]c2ccc(Cl)cc12)c1cc(Cc2cccc(F)c2F)on1 [Example D130]", "log10(EC50)": 1.30}
{"COMPOUND": "Cc1cccc(Cc2nc(C(=O)NCCc3c[nH]c4ccc(Cl)cc34)no2)c1 [Example D184]", "log10(EC50)": 1.41}
{"COMPOUND": "O=C(NCCc1c[nH]c2ccc(Cl)cc12)c1cc(Cc2cc(F)cc(F)c2)on1 [Example D131]", "log10(EC50)": 1.11}
{"COMPOUND": "O=C(NCCc1c[nH]c2ncc(Cl)cc12)c1cc(Cc2cc(F)ccc2F)on1 [Example D128]", "log10(EC50)": 2.02}
{"COMPOUND": "O=C(c1cc(Cc2cc(F)ccc2F)on1)N1CCC(c2c[nH]c3ccccc23)CC1 [Example D138]", "log10(EC50)": 2.62}
{"COMPOUND": "COc1cccc(Cc2cc(C(=O)NCCc3c[nH]c4ccc(Cl)cc34)no2)c1F [Example D21]", "log10(EC50)": 1.40}
{"COMPOUND": "Cn1ccc(N2CCC(C(=O)NCCc3c[nH]c4ccc(Cl)cc34)C2=O)n1 (stereo not drawn) [Example D160]", "log10(EC50)": 3.02}
{"COMPOUND": "O=C(NCCc1c[nH]c2ccc(Cl)cc12)c1noc(Cc2ccc(F)cc2F)n1 [Example D189]", "log10(EC50)": 1.18}
{"COMPOUND": "O=C(NCCc1c[nH]c2ccc(Cl)cc12)C1=N[C@H](Cc2ccccc2)CO1 [Example D81]", "log10(EC50)": 2.96}
{"COMPOUND": "COc1ccc(N2CCC(C(=O)NCCc3c[nH]c4ccc(Cl)cc34)C2=O)cc1F (stereo not drawn) [Example D147]", "log10(EC50)": 2.58}
{"COMPOUND": "O=C(NCCc1c[nH]c2ccc(Cl)cc12)C1CCN(c2ccc(Cl)cc2)C1=O (stereo not drawn) [Example D153]", "log10(EC50)": 2.56}
{"COMPOUND": "O=C(NCCc1c[nH]c2ccc(Cl)cc12)c1cc(-c2ccccc2)on1 [Example D36]", "log10(EC50)": 1.79}
{"COMPOUND": "CCN(CC)Cc1cc(C(=O)NCCc2c[nH]c3ccc(Cl)cc23)no1 [Example D125]", "log10(EC50)": 2.54}
{"COMPOUND": "CC(=O)c1ccc(N2CCC(C(=O)NCCc3c[nH]c4ccc(Cl)cc34)C2=O)cc1 (stereo not drawn) [Example D134]", "log10(EC50)": 1.93}
{"COMPOUND": "O=C(NCCc1c[nH]c2ccc(Cl)cc12)c1cc(C2CCCCC2)on1 [Example D13]", "log10(EC50)": 1.26}
{"COMPOUND": "COc1ccc(Cc2nc(C(=O)NCCc3c[nH]c4ccc(Cl)cc34)no2)cc1 [Example D173]", "log10(EC50)": 1.78}
{"COMPOUND": "O=C(NCCc1c[nH]c2ncc(Cl)cc12)c1cc(C(=O)c2cc(F)ccc2F)on1 [Example D127]", "log10(EC50)": 2.64}
{"COMPOUND": "Cc1cccc(N2CCC(C(=O)NCCc3c[nH]c4ccc(Cl)cc34)C2=O)c1 (stereo not drawn) [Example D159]", "log10(EC50)": 2.95}
